System: L. braziliensis MHOM/BR/75/M209
Assay: Antileishmanial activity, L. braziliensis promastigotes (luciferase expressing strain)
Assay type: cell-based, Leishmania braziliensis
pIC50: −log10 of the molar value.
Documented pIC50 across a set of compounds

Cc1nc(-c2ccc(C(=O)Nc3ccc(C(=O)NO)cc3)cc2)cs1 ... < 4.22

--- query ---
input: Record request: pIC50 value, item "Cc1nc(-c2ccc(C(=O)NCc3ccc(C(=O)NO)cc3)cc2)cs1"
output: < 4.22

====

Molecular target: HDAC 1 (Homo sapiens)
Sequence (Q13547 whole entry): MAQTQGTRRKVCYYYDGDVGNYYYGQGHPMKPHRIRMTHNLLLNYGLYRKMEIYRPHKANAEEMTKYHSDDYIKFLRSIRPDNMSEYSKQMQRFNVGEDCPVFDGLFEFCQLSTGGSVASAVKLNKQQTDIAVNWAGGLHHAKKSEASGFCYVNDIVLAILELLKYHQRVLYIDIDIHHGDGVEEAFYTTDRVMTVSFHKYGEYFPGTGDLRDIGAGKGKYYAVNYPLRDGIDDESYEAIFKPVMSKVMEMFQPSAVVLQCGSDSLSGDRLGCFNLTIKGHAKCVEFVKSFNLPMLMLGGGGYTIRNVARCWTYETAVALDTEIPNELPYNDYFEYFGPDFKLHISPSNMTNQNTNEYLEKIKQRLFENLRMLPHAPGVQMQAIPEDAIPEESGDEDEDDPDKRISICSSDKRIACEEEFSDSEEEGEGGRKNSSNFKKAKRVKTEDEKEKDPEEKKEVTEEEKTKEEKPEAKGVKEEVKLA
Assay: Fluorometric HDAC assay, recombinant HDAC1
Conditions: recombinant protein; read-out: rHDAC 1 IC50
measured_endpoint: pIC50
As a rule, pIC50 stands for the negative log10 of the concentration, concentration in M.

input: Record request: pIC50 value, item COc1cccc(CC(=O)Nc2ccc(C(=O)NO)cc2)c1 [Compound 363]
output: 6.59

====

Test: Cytotoxicity, HEPG2 cell line
Format: cell-based, human
Settings: human, HepG2 cells
pIC50: −log10 of the molar value.
measured_endpoint: pIC50

input: Record request: pIC50 value, item COc1cccc(CC(=O)Nc2ccc(C(=O)NO)cc2)c1 [Compound 363]
output: < 4.82

====

Documented IC50 across a set of compounds
Tested on: L. infantum MHOM/MA/67/ITMAP-264
Experiment: Antileishmanial activity, L. infantum promastigotes (luciferase expressing strain)
Format: cell-based, Leishmania infantum
Conditions: promastigotes, luciferase expressing strain

input: Please state recorded IC50 (tested on L. infantum MHOM/MA/67/ITMAP-264) of Cc1nc(-c2ccc(C(=O)Nc3ccc(C(=O)NO)cc3)cc2)cs1 [Compound 361]
output: > 60 µM

input: Same question for Cc1nc(-c2ccc(C(=O)NCc3ccc(C(=O)NO)cc3)cc2)cs1 [Compound 360] please.
output: > 60 µM

====

Assay: Cytotoxicity, MTT assay, THP-1
Type: cell-based, human
Conditions: human, THP-1 cells (monocytic cell line); MTT assay
Protocol: The human monocytic cell line THP-1 was cultivated in RPMI medium supplemented with 10% FCS, 2 mM GlutaMAX, 100 U/ml penicillin, and 100 μg/ml streptomycin. […] Cytotoxicity was evaluated via the MTT assay, and the IC50 values were calculated using Prism software (Prism 4 for Mac OS X, version 5.0b, December, 2008).
measured_endpoint: IC50 (µM)
Use µM as the unit, but write only the number.

COc1cccc(CC(=O)Nc2ccc(C(=O)NO)cc2)c1 [Compound 363] ... 3.6
O=C(NO)c1ccc(NS(=O)(=O)c2cccc(F)c2)cc1 [Compound 351] ... 33.5
COc1cccc(CC(=O)NCc2ccc(C(=O)NO)cc2)c1 [Compound 362] ... 30.5

--- query ---
input: Record request: IC50 value, item O=C(NO)c1ccc(NC(=O)c2cccc(F)c2)cc1 [Compound 349, 4-(3-fluorobenzamido)-N-hydroxybenzamide]
output: 264

====

Test system: HFF cells
Experiment: Cytotoxicity, MTT assay, HFF
Assay type: cell-based, human
measured_endpoint: pIC50
As a rule, pIC50 stands for the negative log10 of the concentration, concentration in M.

Cc1nc(-c2ccc(C(=O)NCc3ccc(C(=O)NO)cc3)cc2)cs1 ... 4.65

--- query ---
input: Record request: pIC50 value, item "Cc1nc(-c2ccc(C(=O)Nc3ccc(C(=O)NO)cc3)cc2)cs1"
output: 4.60

====

Target: HDAC 6 (Homo sapiens, UniProt Q9UBN7)
Sequence (Q9UBN7 whole entry): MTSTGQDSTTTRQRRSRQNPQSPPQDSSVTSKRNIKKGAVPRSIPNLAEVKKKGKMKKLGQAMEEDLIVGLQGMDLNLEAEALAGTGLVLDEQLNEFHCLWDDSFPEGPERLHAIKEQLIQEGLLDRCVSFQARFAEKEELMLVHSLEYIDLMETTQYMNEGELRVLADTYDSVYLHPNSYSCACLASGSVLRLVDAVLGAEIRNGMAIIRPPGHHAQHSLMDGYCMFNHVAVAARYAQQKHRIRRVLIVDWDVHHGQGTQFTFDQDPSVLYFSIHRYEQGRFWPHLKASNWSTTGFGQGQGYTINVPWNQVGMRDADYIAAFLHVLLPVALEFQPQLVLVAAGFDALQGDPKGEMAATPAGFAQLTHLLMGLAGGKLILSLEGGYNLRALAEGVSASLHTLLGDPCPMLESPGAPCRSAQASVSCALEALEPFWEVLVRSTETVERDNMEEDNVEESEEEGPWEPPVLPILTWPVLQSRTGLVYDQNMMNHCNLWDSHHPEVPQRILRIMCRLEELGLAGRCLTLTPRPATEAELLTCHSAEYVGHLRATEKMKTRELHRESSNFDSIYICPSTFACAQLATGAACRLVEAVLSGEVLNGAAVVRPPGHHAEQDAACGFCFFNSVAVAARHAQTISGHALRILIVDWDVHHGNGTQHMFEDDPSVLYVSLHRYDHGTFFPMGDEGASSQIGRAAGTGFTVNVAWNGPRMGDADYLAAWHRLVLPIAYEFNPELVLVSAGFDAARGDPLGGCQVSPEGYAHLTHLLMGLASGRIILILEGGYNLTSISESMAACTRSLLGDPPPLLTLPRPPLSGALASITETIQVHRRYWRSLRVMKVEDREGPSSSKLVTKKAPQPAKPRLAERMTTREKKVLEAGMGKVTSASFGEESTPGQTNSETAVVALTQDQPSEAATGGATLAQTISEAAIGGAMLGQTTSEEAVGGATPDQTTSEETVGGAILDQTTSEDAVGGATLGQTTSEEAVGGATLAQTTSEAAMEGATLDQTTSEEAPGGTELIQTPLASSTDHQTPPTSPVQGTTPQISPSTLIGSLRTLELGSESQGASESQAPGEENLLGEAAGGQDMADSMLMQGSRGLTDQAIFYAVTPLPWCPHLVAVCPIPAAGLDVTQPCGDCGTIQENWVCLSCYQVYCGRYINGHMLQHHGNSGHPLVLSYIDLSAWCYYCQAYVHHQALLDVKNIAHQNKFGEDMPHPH
Assay: Fluorometric HDAC assay, recombinant HDAC6
Settings: recombinant protein; read-out: rHDAC 6 IC50
measured_endpoint: IC50 (nM)
Use nM as the unit, but write only the number.

input: Record request: IC50 value, item "COc1cccc(CC(=O)Nc2ccc(C(=O)NO)cc2)c1"
output: 45

====

Biological target: UniProt O15379
Sequence (O15379 whole entry): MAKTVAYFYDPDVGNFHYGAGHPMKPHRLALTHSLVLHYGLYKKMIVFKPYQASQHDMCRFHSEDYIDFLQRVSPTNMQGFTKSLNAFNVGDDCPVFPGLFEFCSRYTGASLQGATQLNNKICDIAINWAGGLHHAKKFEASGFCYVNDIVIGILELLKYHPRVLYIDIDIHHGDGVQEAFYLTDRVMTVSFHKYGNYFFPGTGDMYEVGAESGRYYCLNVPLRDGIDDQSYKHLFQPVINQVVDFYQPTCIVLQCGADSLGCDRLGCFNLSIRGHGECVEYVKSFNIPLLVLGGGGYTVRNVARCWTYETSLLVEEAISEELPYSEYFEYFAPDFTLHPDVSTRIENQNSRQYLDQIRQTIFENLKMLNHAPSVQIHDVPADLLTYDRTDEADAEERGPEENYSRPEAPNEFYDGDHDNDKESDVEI
Sequence (O75376 395-489 partner limits assumed): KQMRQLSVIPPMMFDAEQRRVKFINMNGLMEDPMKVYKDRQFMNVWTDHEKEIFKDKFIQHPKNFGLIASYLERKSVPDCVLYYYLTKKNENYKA
Test: Fluorometric HDAC assay, recombinant HDAC3
Details: recombinant protein; read-out: rHDAC 3 IC50
measured_endpoint: pIC50
As a rule, pIC50 stands for the negative log10 of the concentration, concentration in M.

input: Record request: pIC50 value, item "COc1cccc(CC(=O)Nc2ccc(C(=O)NO)cc2)c1"
output: 6.80

====

Documented pIC50 across a set of compounds
Assay: Cytotoxicity, MTT assay, HFF
Assay type: cell-based, human
Settings: human, HFF cells
Protocol: The human monocytic cell line THP-1 was cultivated in RPMI medium supplemented with 10% FCS, 2 mM GlutaMAX, 100 U/ml penicillin, and 100 μg/ml streptomycin. […] Cytotoxicity was evaluated via the MTT assay, and the IC50 values were calculated using Prism software (Prism 4 for Mac OS X, version 5.0b, December, 2008).
As a rule, pIC50 stands for the negative log10 of the concentration, concentration in M.

Examples with their reported pIC50 follow.
O=C(NO)c1ccc(CNS(=O)(=O)c2cccc(F)c2)cc1 ... 3.52
COc1cccc(CC(=O)Nc2ccc(C(=O)NO)cc2)c1 ... 3.98
O=C(NO)c1ccc(CNC(=O)c2cccc(F)c2)cc1 ... 4.23

input: Record request: pIC50 value, item "O=C(NO)c1ccc(NS(=O)(=O)c2cccc(F)c2)cc1"
output: 3.93

====

System: THP-1 cells
Assay: Cytotoxicity, MTT assay, THP-1
Type: cell-based, human
Conditions: MTT assay
measured_endpoint: pIC50
As a rule, pIC50 stands for the negative log10 of the concentration, concentration in M.

input: Record request: pIC50 value, item "Cc1nc(-c2ccc(C(=O)NCc3ccc(C(=O)NO)cc3)cc2)cs1"
output: 5.66

Origin of the recorded values: paper PMC6114082
